Assay: Solubility of triamcinolone acetonide
Type: physicochemical
Details: saline or isotonic; 37 C in 0.2 M potassium chloride
Experimental: Consider a device with 10 uL reservoir volume loaded with 0.4 mg using a commercial drug product (40 mg/mL triamcinolone acetonide). […] The target release rate is 1 ug/day based upon published clinical data. As an example, consider the 0.2 media grade stainless steel characterized in Example 8 with P/F=0.12 and a thickness of 0.5 mm. […] This could be achieved with a cylindrical device having an inner diameter of 2 mm and a length of porous tubing of 1 mm. […]
PROPERTY_MEASURED: solubility (µg/mL)
Entry rule: numbers only, all in µg/mL.

State, in one line, measured solubility of CC1(C)O[C@@H]2C[C@H]3[C@@H]4CCC5=CC(=O)C=C[C@]5(C)[C@@]4(F)[C@@H](O)C[C@]3(C)[C@]2(C(=O)CO)O1 [triamcinolone acetonide]
19

These entries and their values trace back to patent US20130274692A1.
